Origin of measurements: patent US20240343803A1

Target: T1, human TIGIT ECD-his (fusion protein of extracellular domain of human TIGIT and His-tag) (human)
T1 construct: entry includes the signal peptide, limits not readable here
T1 chain: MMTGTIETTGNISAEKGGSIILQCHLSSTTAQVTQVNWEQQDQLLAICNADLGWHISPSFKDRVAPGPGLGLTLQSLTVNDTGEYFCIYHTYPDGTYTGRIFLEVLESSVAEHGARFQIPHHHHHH
Experiment: BIAcore kinetics
quantity: kon (M⁻¹ s⁻¹)
Field format: number, assumed M⁻¹ s⁻¹, no unit text.

Tell me its kon given TIGIT-CHI-002 (antibody, V domains shown, human-mouse chimeric antibody) VH: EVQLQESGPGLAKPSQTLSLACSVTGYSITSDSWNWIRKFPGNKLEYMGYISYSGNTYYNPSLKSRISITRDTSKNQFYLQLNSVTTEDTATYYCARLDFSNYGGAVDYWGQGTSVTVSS VL: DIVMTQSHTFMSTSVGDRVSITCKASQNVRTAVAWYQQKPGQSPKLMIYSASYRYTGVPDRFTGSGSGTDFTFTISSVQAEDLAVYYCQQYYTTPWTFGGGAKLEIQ as the entry.
4.53e+06

For the binder TIGIT-CHI-006 (antibody, V domains shown, human-mouse chimeric antibody) VH: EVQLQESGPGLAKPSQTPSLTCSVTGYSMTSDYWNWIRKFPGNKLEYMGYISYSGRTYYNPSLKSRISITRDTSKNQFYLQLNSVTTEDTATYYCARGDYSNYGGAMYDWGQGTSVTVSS VL: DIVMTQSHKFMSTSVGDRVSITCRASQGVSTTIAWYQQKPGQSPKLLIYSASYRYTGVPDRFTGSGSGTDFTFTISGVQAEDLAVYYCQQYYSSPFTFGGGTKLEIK , give its measured kon value.
1.29e+06

Supply reported kon belonging to this binder: TIGIT-CHI-070 (antibody, V domains shown, human-mouse chimeric antibody) VH: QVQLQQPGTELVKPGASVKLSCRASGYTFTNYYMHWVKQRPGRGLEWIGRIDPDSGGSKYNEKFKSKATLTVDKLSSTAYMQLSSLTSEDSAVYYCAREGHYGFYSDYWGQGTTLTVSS VL: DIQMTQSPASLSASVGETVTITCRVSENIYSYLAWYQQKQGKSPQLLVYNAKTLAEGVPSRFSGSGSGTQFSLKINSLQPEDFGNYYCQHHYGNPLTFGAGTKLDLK
1.52e+06

# return recorded kon for input TIGIT-CHI-005 (antibody, V domains shown, human-mouse chimeric antibody) VH: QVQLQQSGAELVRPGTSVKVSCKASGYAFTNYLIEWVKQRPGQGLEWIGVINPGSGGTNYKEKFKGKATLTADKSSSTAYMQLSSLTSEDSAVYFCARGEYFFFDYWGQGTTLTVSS VL: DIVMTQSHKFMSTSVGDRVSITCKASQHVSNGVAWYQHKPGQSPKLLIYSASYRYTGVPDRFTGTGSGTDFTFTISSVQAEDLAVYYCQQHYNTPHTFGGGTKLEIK
3.59e+06
